The reported numbers originate from patent US4205163A.

Tested on: Mycoplasma gallisepticum A-72
Experiment: antibacterial activity against Mycoplasma
Type: cell-based
Conditions: Mycoplasmoides gallisepticum, A72; strain A-72, macrolide resistant; Eiken PPLO Medium
measured_metric: MIC (µg/mL)
// note: answer is a bare numeric in µg/mL

INSERT INTO measurements (compound, recorded_measurement) VALUES
  ('CCC1OC(=O)CC(OC(C)=O)C(C)C(OC2OC(C)C(OC3CC(C)(O)C(OC(=O)CSCc4ccccc4)C(C)O3)C(N(C)C)C2O)C(CC=O)CC(C)C(=O)C=CC(C)=CC1COC1OC(C)C(O)C(OC)C1OC (centres unmarked) [Compound 38, 3-acetyl-4"-benzylthioacetyltylosin]', 0.078);

// field: MIC; key: CCC1OC(=O)CC(O)C(C)C(OC2OC(C)C(OC3CC(C)(O)C(OC(=O)CCc4ccccc4)C(C)O3)C(N(C)C)C2O)C(CC=O)CC(C)C(=O)C=CC(C)=CC1COC1OC(C)C(O)C(OC)C1OC (stereo not drawn) [Compound 24, 4"-β-phenylpropionyltylosin] ; value = 0.157
